Hey, just so you know, these numbers are from patent US9175013B2.

- Assay protocol: Plasma protein binding (PPB), rapid equilibrium dialysis
- Format: in vitro ADME
- Test parameters: male, Sprague Dawley, rat, pH 7.4, 1 μg/mL in rat plasma, 37° C., 6 h dialysis, mean of n = 3, read-out: Rat PPB (%) (converted)
Catalogue of fraction unbound at 6 h, 1 μg/mL values
Property: fraction unbound at 6 h, 1 μg/mL

>  <Compound>
COc1cnc(C(=O)Nc2ccc(F)c([C@]34CO[C@H](C(F)F)[C@H]3CSC(N)=N4)c2)cn1 [Example 3]

>  <Number>
0.143

$$$$
>  <Compound>
COc1cnc(C(=O)Nc2ccc(F)c([C@]34CO[C@H](CF)[C@H]3CSC(N)=N4)c2)cn1 [Example 2]

>  <Number>
0.251

$$$$
>  <Compound>
COc1cnc(C(=O)Nc2cc(F)c(F)c([C@]34CO[C@H](CF)[C@H]3CSC(N)=N4)c2)cn1 [Example 4]

>  <Number>
0.13

$$$$
